Sourced from ChEMBL document CHEMBL6182835

TARGET: UniProt:Q92482
PROTOCOL_DESCRIPTION: Inhibition of human AQP3 expressed in CHO cells
Type: cell-based
RECORDED_ENDPOINT: pIC50
Numbers only, as −log10 of the molar value.

Noted for CCOC(=O)c1ccc(NC(=O)NCc2ccc(-n3cccn3)cc2)cc1 : its pIC50 reads 6.70

---

TARGET: UniProtKB Q92482
PROTOCOL_DESCRIPTION: Inhibition of AQP3 (unknown origin)
RECORDED_ENDPOINT: pIC50
Answers are plain numbers, as −log10 of the molar value.

// recorded pIC50 for Cc1ccc(CC2(OCCN(C)C)CCC(C(C)(C)C)CC2)cc1 (stereo unspecified) : 4.57

---

PROTOCOL_DESCRIPTION: Permeability of compound
Format: ADME
MEASUREMENT_SETUP: not told; read-out: permeability
RECORDED_ENDPOINT: Papp

Papp recorded for this compound, O=C(CCc1ccc(O)cc1)c1c(O)cc(O)cc1O [PHLORETIN] , is ~2.8 ×10⁻⁶ cm/s

---

TARGET: Aquaporin-9 (Mus musculus)
Sequence (Q9JJJ3 whole entry): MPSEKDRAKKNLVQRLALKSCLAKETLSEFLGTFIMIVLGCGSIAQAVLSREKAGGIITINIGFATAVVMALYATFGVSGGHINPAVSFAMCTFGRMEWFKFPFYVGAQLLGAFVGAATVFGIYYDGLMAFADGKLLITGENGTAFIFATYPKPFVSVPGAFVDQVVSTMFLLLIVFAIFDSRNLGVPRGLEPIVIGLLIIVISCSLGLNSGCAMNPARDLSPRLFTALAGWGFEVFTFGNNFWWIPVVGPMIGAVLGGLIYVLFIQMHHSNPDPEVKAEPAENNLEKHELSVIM
RECORDED_ENDPOINT: pIC50
Answers are plain numbers, as −log10 of the molar value.

According to the records, this molecule CCOC(=O)c1ccc(NC(=O)NCc2ccc(-n3cccn3)cc2)cc1 displays pIC50 of 5.96

---

TARGET: Aquaporin-3 (Homo sapiens)
Sequence (Q92482 whole entry): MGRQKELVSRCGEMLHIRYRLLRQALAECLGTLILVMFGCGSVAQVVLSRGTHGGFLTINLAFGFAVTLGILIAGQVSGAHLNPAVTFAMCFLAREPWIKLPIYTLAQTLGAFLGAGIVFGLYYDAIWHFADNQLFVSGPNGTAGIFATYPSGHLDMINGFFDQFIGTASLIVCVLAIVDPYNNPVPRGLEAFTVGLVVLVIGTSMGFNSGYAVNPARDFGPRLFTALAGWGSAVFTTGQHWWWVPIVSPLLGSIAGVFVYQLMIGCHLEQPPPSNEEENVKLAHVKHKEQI
PROTOCOL_DESCRIPTION: Inhibition of AQP3 channel in human erythrocyte assessed as inhibition of glycerol permeability
Assay type: cell-based
pIC50: −log10 of the molar value.
RECORDED_ENDPOINT: pIC50

pIC50 recorded for this compound, O=C(Nc1csc([N+](=O)[O-])c1)Nc1c(Cl)cccc1Cl , is ~6.70

Field: next compound
Entry CCOC(=O)c1ccc(NC(=O)NCc2ccc(-n3cccn3)cc2)cc1 — recorded pIC50 = ~6.22

---

TARGET: Aquaporin-1 (Homo sapiens, UniProt P29972)
Sequence (P29972 whole entry): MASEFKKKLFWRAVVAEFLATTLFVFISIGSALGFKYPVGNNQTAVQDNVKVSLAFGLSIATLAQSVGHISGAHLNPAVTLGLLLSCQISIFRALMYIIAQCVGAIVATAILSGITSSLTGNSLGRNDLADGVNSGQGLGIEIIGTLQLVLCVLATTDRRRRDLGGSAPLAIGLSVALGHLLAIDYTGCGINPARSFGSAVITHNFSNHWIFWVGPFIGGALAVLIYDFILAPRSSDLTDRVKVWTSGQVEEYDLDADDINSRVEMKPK
RECORDED_ENDPOINT: pKd
Numbers only, as −log10 of the molar value.

// molecule CC(=O)Nc1nnc(S(N)(=O)=O)s1 [ACETAZOLAMIDE] , assay Aquaporin-1 (Homo sapiens, UniProt P29972), pKd value: 3.76
